From: patent US20070049564A1

System: S. typhimurium GC 2172
procedure details: MIC, broth microdilution
condition notes: Salmonella enterica, TYPHIMURIUM, S. typhimurium GC 2172; Water pre-incubation
measured metric: MIC

Some solved entries appear below for comparison.
CCCCN(CC(=O)Nc1cc(N(C)C)c2c(c1O)C(=O)C1=C(O)[C@]3(O)C(=O)C(C(N)=O)=C(O)[C@@H](N(C)C)C3CC1C2)C(=O)OCOC(=O)c1ccc(OC)cc1 (some centres unmarked): > 64 µg/mL
CCCN(CC(=O)Nc1cc(N(C)C)c2c(c1O)C(=O)C1=C(O)[C@]3(O)C(=O)C(C(N)=O)=C(O)[C@@H](N(C)C)[C@@H]3C[C@@H]1C2)C(=O)OCOC(=O)Cc1ccccc1: > 64 µg/mL
CCCCN(CC(=O)Nc1cc(N(C)C)c2c(c1O)C(=O)C1=C(O)[C@]3(O)C(=O)C(C(N)=O)=C(O)[C@@H](N(C)C)[C@@H]3C[C@@H]1C2)C(=O)OCOC(=O)Cc1ccccc1: > 64 µg/mL
CCCCN(CC(=O)Nc1cc(N(C)C)c2c(c1O)C(=O)C1=C(O)[C@]3(O)C(=O)C(C(N)=O)=C(O)[C@@H](N(C)C)[C@@H]3C[C@@H]1C2)C(=O)OCOC(=O)C(C)(C)C: 64 µg/mL

# next compound below
Report MIC for CCCCN(CC(=O)Nc1cc(N(C)C)c2c(c1O)C(=O)C1=C(O)[C@]3(O)C(=O)C(C(N)=O)=C(O)[C@@H](N(C)C)C3CC1C2)C(=O)OCOC(=O)c1ccc(C)cc1 (some centres unmarked) please.
> 64 µg/mL
